molecular target: human KDR (human, UniProt P35968 20-1356); experiment: cell-based or functional assay
Sequence (P35968 20-1356): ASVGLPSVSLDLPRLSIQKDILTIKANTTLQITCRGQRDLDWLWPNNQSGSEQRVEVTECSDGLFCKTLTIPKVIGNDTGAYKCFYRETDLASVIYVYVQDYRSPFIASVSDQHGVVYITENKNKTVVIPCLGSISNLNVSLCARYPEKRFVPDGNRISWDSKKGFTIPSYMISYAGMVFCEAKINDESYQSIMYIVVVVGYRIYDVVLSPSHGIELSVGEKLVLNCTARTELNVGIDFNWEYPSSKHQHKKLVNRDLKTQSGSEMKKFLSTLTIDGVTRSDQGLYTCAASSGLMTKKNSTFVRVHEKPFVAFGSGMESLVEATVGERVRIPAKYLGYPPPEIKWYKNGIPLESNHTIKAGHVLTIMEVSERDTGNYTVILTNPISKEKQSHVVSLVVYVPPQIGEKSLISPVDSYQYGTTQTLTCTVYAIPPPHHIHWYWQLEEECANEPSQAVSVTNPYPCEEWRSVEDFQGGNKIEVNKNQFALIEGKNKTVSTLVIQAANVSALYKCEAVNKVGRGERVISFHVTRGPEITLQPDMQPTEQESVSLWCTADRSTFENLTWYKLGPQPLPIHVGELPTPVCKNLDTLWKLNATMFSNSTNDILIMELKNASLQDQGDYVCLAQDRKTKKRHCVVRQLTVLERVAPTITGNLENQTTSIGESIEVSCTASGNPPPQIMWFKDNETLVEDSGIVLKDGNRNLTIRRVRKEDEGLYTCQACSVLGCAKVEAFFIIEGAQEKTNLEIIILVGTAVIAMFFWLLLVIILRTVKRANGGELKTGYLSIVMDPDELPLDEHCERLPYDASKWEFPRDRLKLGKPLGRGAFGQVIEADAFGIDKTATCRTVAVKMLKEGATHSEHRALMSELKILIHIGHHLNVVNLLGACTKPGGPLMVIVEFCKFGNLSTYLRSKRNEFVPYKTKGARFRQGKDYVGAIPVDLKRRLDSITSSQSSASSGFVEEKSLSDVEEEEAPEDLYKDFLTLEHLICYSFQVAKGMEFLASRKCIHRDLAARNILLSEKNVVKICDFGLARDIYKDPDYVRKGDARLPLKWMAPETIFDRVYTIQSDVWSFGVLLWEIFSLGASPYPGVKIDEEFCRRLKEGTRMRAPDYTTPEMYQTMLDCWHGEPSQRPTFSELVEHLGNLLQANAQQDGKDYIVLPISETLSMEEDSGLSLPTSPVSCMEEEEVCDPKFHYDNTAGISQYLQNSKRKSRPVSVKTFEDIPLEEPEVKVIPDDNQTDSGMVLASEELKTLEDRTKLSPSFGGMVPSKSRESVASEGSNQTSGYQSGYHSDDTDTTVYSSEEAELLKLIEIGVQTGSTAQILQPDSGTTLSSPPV
The entries below come with measured KDR tyrosine phosphorylation in HUVEC, Maximum Inhibition at 100 nM (% Inhibition), N = 1 values attached.
assay.metric: KDR tyrosine phosphorylation in HUVEC, Maximum Inhibition at 100 nM (% Inhibition), N = 1 (%)

INSERT INTO assay_data (binder, measure_unit, value) VALUES
  ('22B8 (antibody, V domains shown, Fully human monoclonal antibody from a XenoMouse hybridoma (IgG2 or IgG4 strain), purified) VH: QLQLQESGPGLVKPSETLSLTCTVSGGSISSRYYYWGWVRQPPGKGLEWIGTIYYSGHTYYNPSLKTRVTISVDTSKNQFSLKLISVTAADTAVYYCATQQLVLYYFDFWGQGTLVTVSS VL: EIVLTQSPGTLSLSPGERAALSCRASQSISSSYLAWYQQRPGQAPRLLIYGASSRATGIPDRFNGSGSGTDFTLTISRLEPEDFAVYYCQQFGSSITFGQGTRLEIK', '%', 75),
  ('33E1 (antibody, V domains shown, Fully human monoclonal antibody from a XenoMouse hybridoma (IgG2 or IgG4 strain), purified) VH: QVQLQESGPGLVKPSQTLSLTCTVSGGSISSGDHYWSWIRQHPGKGLEWIGHIYYSGSTDYNPSLKSRVTISVDTSKNHFSLKLNSVTAADTAVYYCARTNSSSWSDWYFDLWGRGTLVTVSS VL: DIVMTQSPDSLAVSLGERATINCKSSQSILYSSNNKNYLAWYQRKPGQPPILLIHWASTRESGVPDRFSGSGSRTDFTLTISSLQAEDVAVYYCQQYFITPWTFGQGTKVEIK', '%', 73),
  ('33B1 (antibody, V domains shown, Fully human monoclonal antibody from a XenoMouse hybridoma (IgG2 or IgG4 strain), purified) VH: EVQLVESGGGLVKPGGSLRLSCAASGFTFSSYTMNWVRQAPGKGLEWVSFIDSRSSYIYYADSVKGRFTISRDNAKNSLYLQMNSLRAEDTAVYYCSKDDWFEELWGQGTLVTVSS VL: DIQMTQSPSSLSASVGDRVTITCRASQGIRNDLGWYQQKPGKAPKRLIYATSSLQSGVPSRFSGSGSGTEFTLTISSLQPEDFATYYCLHHNSFPWTFGQGTKVEIK', '%', 86);
